meta.source: patent US9144596B2

- Test system: HCT-116(APC−/−) cells
- assay.overview: sulforhodamine B (SRB) colorimetric cytotoxicity assay
- Assay type: cell-based, human
- run.conditions: Homo sapiens, 48 hours, SRB, read-out: IC50 of TMZ
- Protocol: The IC50 (the drug concentration needed to prevent cell proliferation by 50%) of TMZ was determined using a sulforhodamine B (SRB) colorimetric assay. […] APC blocked base excision repair and sensitized colon cancer cells after TMZ treatment. […] The cellular toxicity was determined by sulforhodamine B (SRB) colorimetric assay as described above. […]
value.type: pIC50
Scale: negative log10 of molar concentration, which is what pIC50 denotes.

Query block: Respond only with pIC50 recorded for Cn1nnc2c(C(N)=O)ncn2c1=O [TMZ, Temozolomide, reference compound]
Result block: 3.40

====

- System: LoVo cells
- assay.overview: SRB cytotoxicity assay, MMR-deficient cells
- Type: cell-based
- run.conditions: Homo sapiens, TMZ alone, 48 hours
- Description: FIGS. 24A and 24D NSC-124854 enhanced the cytotoxicity of TMZ in both MMR-positive and MMR-negative colon cancer cell lines in culture. MMR-proficient [HCT-116-APC(WT)+ch3 and SW480 (Panel 24A and […])] and MMR-deficient [CACO-2 and LoVo (Panel 24C and 24D)] cells were pretreated for 2 hours with 50 μM of NSC-124854 followed by the treatment with different concentrations of TMZ. After 48 hours, cells were harvested and processed for cytotoxicity determination. […]
value.type: IC50 (µM)
Answer format: numeric, µM implied, no suffix.

Query block: Respond only with IC50 recorded for Cn1nnc2c(C(N)=O)ncn2c1=O [TMZ, Temozolomide, reference compound]
Result block: 677

====

- System: HCT-116-APC(WT)+ch3 cells
- assay.overview: SRB cytotoxicity assay, MMR-proficient cells
- Format: cell-based, human
- run.conditions: Homo sapiens; HCT-116-APC(WT)+ch3, TMZ alone, 48 hours
value.type: pIC50
Scale: negative log10 of molar concentration, which is what pIC50 denotes.

Query block: Respond only with pIC50 recorded for Cn1nnc2c(C(N)=O)ncn2c1=O [TMZ, Temozolomide, reference compound]
Result block: 4.00
